Each recorded value in this set is attributed to patent US20210246200A1.

EXPERIMENTAL_TARGET: T1, Proleukin® (aldesleukin) (human, UniProt P60568 21-153, limits assumed)
T1 construct: Variant of human wt IL-2 with C145S (C125S on mature IL-2); also called IL-2 (Proleukin®); human IL-2 (Proleukin)
T1 sequence (P60568 other isoform, or with tags, fused parts or gaps limits assumed): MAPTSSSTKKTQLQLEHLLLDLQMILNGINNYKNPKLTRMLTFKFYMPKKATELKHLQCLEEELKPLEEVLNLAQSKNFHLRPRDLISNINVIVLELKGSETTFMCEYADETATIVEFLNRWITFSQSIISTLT
ASSAY_METHOD_TEXT: ELISA, coated Proleukin, HEK293F supernatant 1:2
MEASURED_ENDPOINT: ELISA value (wash 3x every hour for 12 HRS) (luminescence signal)

{"columns": ["BINDER", "VAL"],
 "data": [
  ["Antibody No: 6 (antibody, human IgG1, kappa, N297A, V domains shown, VK WT; HEK293F supernatant) VH: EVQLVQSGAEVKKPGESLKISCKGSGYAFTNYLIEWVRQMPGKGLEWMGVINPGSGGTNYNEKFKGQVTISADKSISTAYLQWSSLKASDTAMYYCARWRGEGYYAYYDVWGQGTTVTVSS VL: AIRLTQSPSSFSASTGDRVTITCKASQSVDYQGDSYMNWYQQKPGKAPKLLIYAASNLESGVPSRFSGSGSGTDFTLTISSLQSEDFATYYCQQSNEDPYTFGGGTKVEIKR", 1730],
  ["Antibody No: 16 (antibody, human IgG1, kappa, N297A, V domains shown, VK WT; HEK293F supernatant) VH: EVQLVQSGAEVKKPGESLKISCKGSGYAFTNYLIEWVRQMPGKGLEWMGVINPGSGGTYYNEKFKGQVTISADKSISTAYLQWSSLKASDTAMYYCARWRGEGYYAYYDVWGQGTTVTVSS VL: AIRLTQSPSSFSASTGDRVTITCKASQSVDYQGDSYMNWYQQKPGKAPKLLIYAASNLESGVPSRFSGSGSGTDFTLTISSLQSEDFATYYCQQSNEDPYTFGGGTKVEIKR", 2280],
  ["Antibody No: 26 (antibody, human IgG1, kappa, N297A, V domains shown, VH N58Y + T30S; VK WT; HEK293F supernatant; 108929 is kept apart) VH: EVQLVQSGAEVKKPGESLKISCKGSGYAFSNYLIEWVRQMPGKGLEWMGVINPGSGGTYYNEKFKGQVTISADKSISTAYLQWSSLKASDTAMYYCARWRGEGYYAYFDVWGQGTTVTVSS VL: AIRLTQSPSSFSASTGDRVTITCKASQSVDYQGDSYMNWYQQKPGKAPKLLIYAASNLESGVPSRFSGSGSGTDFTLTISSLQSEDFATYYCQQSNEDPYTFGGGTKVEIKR", 1800],
  ["Antibody No: 5 (antibody, human IgG1, kappa, N297A, V domains shown, VH WT; VK M33L + A50S; HEK293F supernatant) VH: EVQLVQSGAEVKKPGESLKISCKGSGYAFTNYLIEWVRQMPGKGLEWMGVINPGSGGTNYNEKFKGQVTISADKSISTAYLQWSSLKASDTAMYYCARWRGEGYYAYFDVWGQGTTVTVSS VL: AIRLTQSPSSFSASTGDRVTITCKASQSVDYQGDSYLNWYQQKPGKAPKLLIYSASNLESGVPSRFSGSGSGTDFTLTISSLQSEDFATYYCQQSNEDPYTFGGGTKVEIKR", 873],
  ["Antibody No: 31 (antibody, human IgG1, kappa, N297A, V domains shown, VK WT; HEK293F supernatant) VH: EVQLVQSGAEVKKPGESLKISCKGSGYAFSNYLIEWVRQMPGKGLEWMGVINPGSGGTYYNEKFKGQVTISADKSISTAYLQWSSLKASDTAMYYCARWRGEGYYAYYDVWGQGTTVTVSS VL: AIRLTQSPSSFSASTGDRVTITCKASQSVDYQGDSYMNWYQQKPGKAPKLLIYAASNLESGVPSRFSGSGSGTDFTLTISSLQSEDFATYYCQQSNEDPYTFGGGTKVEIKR", 3400],
  ["Antibody No: 18 (antibody, human IgG1, kappa, N297A, V domains shown, VK A50S; HEK293F supernatant) VH: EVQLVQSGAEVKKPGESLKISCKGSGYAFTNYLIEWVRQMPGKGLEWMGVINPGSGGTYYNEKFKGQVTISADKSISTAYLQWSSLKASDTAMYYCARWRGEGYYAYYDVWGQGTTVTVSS VL: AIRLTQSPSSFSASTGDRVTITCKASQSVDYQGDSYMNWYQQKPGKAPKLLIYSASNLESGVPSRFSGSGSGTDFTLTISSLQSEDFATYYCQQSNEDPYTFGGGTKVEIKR", 3660],
  ["Antibody No: 2 (antibody, human IgG1, kappa, N297A, V domains shown, VH WT; VK M33L; HEK293F supernatant) VH: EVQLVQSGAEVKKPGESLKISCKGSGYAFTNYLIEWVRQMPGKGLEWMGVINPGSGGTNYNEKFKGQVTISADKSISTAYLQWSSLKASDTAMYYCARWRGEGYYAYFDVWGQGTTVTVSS VL: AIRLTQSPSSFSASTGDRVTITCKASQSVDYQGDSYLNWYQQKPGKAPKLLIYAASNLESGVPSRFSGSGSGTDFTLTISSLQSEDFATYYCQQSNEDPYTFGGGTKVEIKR", 518],
  ["Antibody No: 20 (antibody, human IgG1, kappa, N297A, V domains shown, VK M33L + A50S; also called 108928) VH: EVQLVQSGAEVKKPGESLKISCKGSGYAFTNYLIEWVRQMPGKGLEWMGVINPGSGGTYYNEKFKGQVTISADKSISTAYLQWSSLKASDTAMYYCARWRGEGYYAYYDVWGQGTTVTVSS VL: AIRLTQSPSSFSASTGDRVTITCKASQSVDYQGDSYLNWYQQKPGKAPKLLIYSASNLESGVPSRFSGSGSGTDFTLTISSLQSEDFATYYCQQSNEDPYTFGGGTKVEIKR", 5200],
  ["Antibody No: 8 (antibody, human IgG1, kappa, N297A, V domains shown, VK A50S; also called 108923) VH: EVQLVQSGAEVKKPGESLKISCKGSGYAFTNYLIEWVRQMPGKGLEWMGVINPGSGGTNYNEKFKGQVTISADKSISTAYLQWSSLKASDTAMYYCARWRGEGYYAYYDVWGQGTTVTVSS VL: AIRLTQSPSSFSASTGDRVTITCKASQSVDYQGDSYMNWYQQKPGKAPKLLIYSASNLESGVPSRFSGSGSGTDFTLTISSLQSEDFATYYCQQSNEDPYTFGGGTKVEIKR", 2530],
  ["Antibody No: 35 (antibody, human IgG1, kappa, N297A, V domains shown, VK M33L + A50S; HEK293F supernatant) VH: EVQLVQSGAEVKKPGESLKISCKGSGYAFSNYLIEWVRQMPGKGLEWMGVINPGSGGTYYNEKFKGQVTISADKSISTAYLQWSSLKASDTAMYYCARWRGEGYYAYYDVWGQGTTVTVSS VL: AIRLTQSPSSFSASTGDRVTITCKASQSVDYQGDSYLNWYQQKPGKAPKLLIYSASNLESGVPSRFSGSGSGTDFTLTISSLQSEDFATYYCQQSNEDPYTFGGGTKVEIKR", 1790]
]}
